Reference source: patent US20080075726A1

- target: T1, recombinant human IL-6 (human, UniProt P05231 30-212, limits assumed)
- T1 construct: also called rhIL6; human recombinant IL-6
- experiment-description: competition ELISA, rhIL-6 in solution against captured IL-6
measurement-label: IC50 (nM)

binder: mAb 1156 (antibody, V domains shown) VH: QVTLKESGPTLVKPTQTLTLTCSFSGFSLSTSGVGVGWVRQPPGKALEWLAFIFWDDDKYYSPSLESRLTITKDTSKNQVVLTMTNMDPVDTATYYCARSADDYLYYSFDTWGQGTLVT VL: DIQMTQSPSSLSAFVGDGVTMTCWASQSINDYLNWYHQRPGEAPELLVFAASNLQIGVPSRFRGSGSETYFTLTINSLQPEDSGTYFCQSGHSFPLTFGGGTKLEI
measure-unit: nM
data-value: 0.023

binder: mAb 190 (antibody, V domains shown) VH: QVTLKESGPALVKPTQTLTLTCTFSGFSLTTSGMCVSWIRQPPGKALEWLALIYWDDDKRYNPSLRSRLTITKDTSKNQVVLTMTNMDPVDTATYYCARSYDDYLYYALDYWGQGTLVT VL: DIQMTQSPSSLSASVGDSVTITCRASQTISDFLNWYQQKPGKAPKLLIHASSNLQSGVPSRFSGSGSGTDFTLTISDLQPEDFATYSCQQTYSTLGTFGQGTRLE
measure-unit: nM
data-value: 1.9

binder: mAb 297 (antibody, V domains shown) VH: QVTLKESGPTLVKPTQTLTLTCTFSGFSLSTSGVAVGWIRQPPGKALEWLALIFWDDDKHYSPSLKSRLTITKDTSKNQVVLTMTNMDPVDTATYYCARSYDDYLYYALDYWGQGTLVTVSS VL: DIQMTQSPSSLSASVGDSVTITCRASQTISDFLNWYQQKPGKAPKLLIHASSNLQSGVPSRFSGSGSGTDFTLTISDLQPEDFATYSCQQTYSTLGTFGQGTRLE
measure-unit: nM
data-value: 11.5
